Numbers sourced from patent US5462935A.

Protocol: in vivo absorbency test (plasma concentration, pharmacokinetic parameters)
Design: species or system SD rats (male)
Stated Conditions: rat, in vivo, iv, 20 mg/kg
Reported Property: AUC (ng·h/mL)
Quick reminder: number only, in ng·h/mL, skip the unit.

Looking for the measured AUC of CC(C)(O/N=C(\C(=O)N[C@@H]1C(=O)N2C(C(=O)[O-])=C(C[n+]3ccccc3)CS[C@H]12)c1csc(N)n1)C(=O)O [CTZ, Ceftazidime, reference compound] , can you help?
28100

###

A set of molecules tested on Proteus mirabilis ATCC 25933, with measured MIC:
Give a bare numeral; the unit µg/mL is implied.

| Molecule | Study Target | MIC / µg/mL |
| --- | --- | --- |
| Cc1c(N)nc(SCC2=C(C(=O)[O-])N3C(=O)C(NC(=O)/C(=N\O[C@@H](C)C(=O)O)c4csc(N)n4)[C@H]3SC2)[n+](N)c1N (stereo partly drawn) [I-S-7] | Proteus mirabilis ATCC 25933 | 0.016 |
| C[C@@H](O/N=C(\C(=O)NC1C(=O)N2C(C(=O)[O-])=C(CSc3nc(N)cc(N)[n+]3N)CS[C@H]12)c1csc(N)n1)C(=O)O (stereo partly drawn) [I-R-1] | Proteus mirabilis ATCC 25933 | 0.031 |
| CC(C)(O/N=C(\C(=O)N[C@@H]1C(=O)N2C(C(=O)[O-])=C(C[n+]3ccccc3)CS[C@H]12)c1csc(N)n1)C(=O)O [CTZ, Ceftazidime, reference compound] | Proteus mirabilis ATCC 25933 | 0.063 |

What measured MIC goes with C[C@H](O/N=C(\C(=O)NC1C(=O)N2C(C(=O)[O-])=C(CSc3nc(N)cc(N)[n+]3-c3ccccc3)CS[C@H]12)c1csc(N)n1)C(=O)O (stereo partly drawn) [I-S-5] ?
0.13

Please report the recorded MIC for C[C@H](O/N=C(\C(=O)NC1C(=O)N2C(C(=O)[O-])=C(CSc3nc(N)cc(N)[n+]3N)CS[C@H]12)c1csc(N)n1)C(=O)O (stereo partly drawn) [I-S-1] .
0.016

If you can, please state the reported MIC value of CC[n+]1c(N)cc(N)nc1SCC1=C(C(=O)[O-])N2C(=O)C(NC(=O)/C(=N\O[C@@H](C)C(=O)O)c3csc(N)n3)[C@H]2SC1 (stereo partly drawn) [I-S-3] .
0.031
